- assay remarks: Stability of peptides in HepG2 whole cell lysate
- Format: in vitro ADME
- condition set: human, HepG2 lysate, 24 hours, read-out: % intact peptide
Starred links: 1 amine or outer side, 2 acyl side, 3 side chain; linkers in the order of their positions; H or OH if unused. Non-standard residues stand in square brackets, D forms with d. Residues, ends and D or L forms follow the SMILES beside them. Ala(7-MeO-coumarin-4-yl) = COc1ccc2c(C[C@H](N)C(=O)O)cc(=O)oc2c1; X1 = C[C@H](NC(=S)[C@H](CCCNC(=N)N)N[*:1])C(=O)[*:2]

molecule: COc1ccc2c(C[C@H](NC(=O)[C@H](C)NC(=S)[C@H](CCCNC(=N)N)NC(=O)[C@H](Cc3ccccc3)NC(=O)[C@H](CC(C)C)NC(=O)[C@H](Cc3c[nH]cn3)NC(=O)[C@@H](N)Cc3cc(=O)oc4cc(OC)ccc34)C(=O)O)cc(=O)oc2c1 [R^S1A, μHLFR^SAμ] (H-[Ala(7-MeO-coumarin-4-yl)]HLF[X1][Ala(7-MeO-coumarin-4-yl)]-OH)
remaining at 24 h, 20 μM / %: 61.3
